Reference source: ChEMBL document CHEMBL1649576

Here, each record is paired with measured MIC data.
# System: Escherichia coli
# EXPERIMENTAL PROTOCOL: Antimicrobial activity against rifampin-resistant Escherichia coli J53 transconjugated with Proteus vulgaris Pv8 expressing beta-lactamase PER-1 by […]
# Assay type: functional
Only the number, expressed in µg/mL, is required.

Record excerpt, results attached:
>>> data_value("CO/N=C(\\C(=O)N[C@@H]1C(=O)N2C(C(=O)[O-])=C(C[N+]3(C)CCCC3)CS[C@H]12)c1csc(N)n1 [CEFEPIME]")
8
>>> data_value("C[C@@H](O)[C@H]1C(=O)N2C(C(=O)O)=C(SCCNC=N)C[C@H]12 [IMIPENEM ANHYDROUS]")
0.125
>>> data_value("CCN1CCN(C(=O)N[C@@H](C(=O)N[C@@H]2C(=O)N3[C@@H]2SC(C)(C)[C@@H]3C(=O)O)c2ccccc2)C(=O)C1=O [PIPERACILLIN]")
16

// next entry
Lookup result for CO/N=C(\C(=O)N[C@@H]1C(=O)N2C(C(=O)O)=C(COC(C)=O)CS[C@H]12)c1csc(N)n1 [CEFOTAXIME] ; measured MIC: 16

###

# Test system: Escherichia coli
# EXPERIMENTAL PROTOCOL: Antimicrobial activity against rifampin-resistant Escherichia coli J53 transconjugated with Proteus vulgaris Pv9 expressing beta-lactamase PER-1 by Etest
# Format: functional
Here, each record is paired with measured MIC data.
Only the number, expressed in µg/mL, is required.

>>> data_value("CCN1CCN(C(=O)N[C@@H](C(=O)N[C@@H]2C(=O)N3[C@@H]2SC(C)(C)[C@@H]3C(=O)O)c2ccccc2)C(=O)C1=O")
32

Lookup result for CO/N=C(\C(=O)N[C@@H]1C(=O)N2C(C(=O)[O-])=C(C[N+]3(C)CCCC3)CS[C@H]12)c1csc(N)n1 [CEFEPIME] ; measured MIC: 8

Lookup result for "CO/N=C(\C(=O)N[C@@H]1C(=O)N2C(C(=O)O)=C(COC(C)=O)CS[C@H]12)c1csc(N)n1" ; measured MIC: 32

Lookup result for C[C@@H](O)[C@H]1C(=O)N2C(C(=O)O)=C(SCCNC=N)C[C@H]12 [IMIPENEM ANHYDROUS] ; measured MIC: 0.25

###

Here, each record is paired with measured MIC data.
# System: Proteus vulgaris
# EXPERIMENTAL PROTOCOL: Antimicrobial activity against Proteus vulgaris Pv5 expressing beta-lactamase PER-1 by […]
# Assay type: functional
Only the number, expressed in µg/mL, is required.

Record excerpt, results attached:
>>> data_value("CO/N=C(\\C(=O)N[C@@H]1C(=O)N2C(C(=O)O)=C(COC(C)=O)CS[C@H]12)c1csc(N)n1 [CEFOTAXIME]")
32
>>> data_value("CCN1CCN(C(=O)N[C@@H](C(=O)N[C@@H]2C(=O)N3[C@@H]2SC(C)(C)[C@@H]3C(=O)O)c2ccccc2)C(=O)C1=O [PIPERACILLIN]")
16
>>> data_value("C[C@@H](O)[C@H]1C(=O)N2C(C(=O)O)=C(SCCNC=N)C[C@H]12 [IMIPENEM ANHYDROUS]")
1

// next entry
Lookup result for CO/N=C(\C(=O)N[C@@H]1C(=O)N2C(C(=O)[O-])=C(C[N+]3(C)CCCC3)CS[C@H]12)c1csc(N)n1 [CEFEPIME] ; measured MIC: 32
